In this section we review reported Ki values for a set of compounds.
target-under-test: Muscarinic acetylcholine receptor M2 (Homo sapiens, UniProt P08172)
Sequence (P08172 whole entry): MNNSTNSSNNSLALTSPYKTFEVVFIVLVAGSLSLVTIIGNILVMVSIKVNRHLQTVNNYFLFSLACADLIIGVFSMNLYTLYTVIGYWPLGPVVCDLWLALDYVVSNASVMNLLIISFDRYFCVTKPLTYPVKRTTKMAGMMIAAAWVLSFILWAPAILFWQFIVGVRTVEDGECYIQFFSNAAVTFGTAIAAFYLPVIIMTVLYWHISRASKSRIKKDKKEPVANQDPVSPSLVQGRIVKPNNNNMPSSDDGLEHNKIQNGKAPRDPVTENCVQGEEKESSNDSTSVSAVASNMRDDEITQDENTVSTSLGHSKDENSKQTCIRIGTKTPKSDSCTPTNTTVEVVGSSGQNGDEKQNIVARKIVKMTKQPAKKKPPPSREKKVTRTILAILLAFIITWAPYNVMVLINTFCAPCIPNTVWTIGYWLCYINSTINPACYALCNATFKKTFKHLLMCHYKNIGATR
measurement-protocol: Binding affinity to human cloned muscarinic receptor M2 expressed in CHO cells
Assay type: cell-based

smiles-entry: CN1CCC[C@H]1[C@H]1CSC(c2ccccc2)(c2ccccc2)O1
target-under-test: Muscarinic acetylcholine receptor M2 (Homo sapiens, UniProt P08172)
Ki: 4.9 nM (antagonist)

smiles-entry: CN1CCC[C@@H]1[C@@H]1CS[C@@](c2ccccc2)(C2CCCCC2)O1
target-under-test: Muscarinic acetylcholine receptor M2 (Homo sapiens, UniProt P08172)
Ki: 4.47 nM (antagonist)

smiles-entry: C[N+]1(C)CCC[C@H]1[C@H]1CSC(c2ccccc2)(c2ccccc2)O1
target-under-test: Muscarinic acetylcholine receptor M2 (Homo sapiens, UniProt P08172)
Ki: 0.468 nM (antagonist)

smiles-entry: C[N+]1(C)CCC[C@@H]1[C@@H]1CS[C@](c2ccccc2)(C2CCCCC2)O1
target-under-test: Muscarinic acetylcholine receptor M2 (Homo sapiens, UniProt P08172)
Ki: 1.48 nM (antagonist)

smiles-entry: C[N+]1(C)CCC[C@@H]1[C@@H]1CS[C@@](c2ccccc2)(C2CCCCC2)O1
target-under-test: Muscarinic acetylcholine receptor M2 (Homo sapiens, UniProt P08172)
Ki: 0.832 nM (antagonist)

smiles-entry: C[N+]1(C)CCC[C@H]1[C@H]1CS[C@@](c2ccccc2)(C2CCCCC2)O1
target-under-test: Muscarinic acetylcholine receptor M2 (Homo sapiens, UniProt P08172)
Ki: 0.955 nM (antagonist)

smiles-entry: CN1CCC[C@H]1[C@H]1CS[C@@](c2ccccc2)(C2CCCCC2)O1
target-under-test: Muscarinic acetylcholine receptor M2 (Homo sapiens, UniProt P08172)
Ki: 2.75 nM (antagonist)

smiles-entry: CN1CCC[C@@H]1[C@@H]1CSC(c2ccccc2)(c2ccccc2)O1
target-under-test: Muscarinic acetylcholine receptor M2 (Homo sapiens, UniProt P08172)
Ki: 2.75 nM (antagonist)

smiles-entry: C[N+]1(C)CCC[C@@H]1[C@@H]1CSC(c2ccccc2)(c2ccccc2)O1
target-under-test: Muscarinic acetylcholine receptor M2 (Homo sapiens, UniProt P08172)
Ki: 3.39 nM (antagonist)

###

target-under-test: UniProt P08173
Sequence (P08173 whole entry): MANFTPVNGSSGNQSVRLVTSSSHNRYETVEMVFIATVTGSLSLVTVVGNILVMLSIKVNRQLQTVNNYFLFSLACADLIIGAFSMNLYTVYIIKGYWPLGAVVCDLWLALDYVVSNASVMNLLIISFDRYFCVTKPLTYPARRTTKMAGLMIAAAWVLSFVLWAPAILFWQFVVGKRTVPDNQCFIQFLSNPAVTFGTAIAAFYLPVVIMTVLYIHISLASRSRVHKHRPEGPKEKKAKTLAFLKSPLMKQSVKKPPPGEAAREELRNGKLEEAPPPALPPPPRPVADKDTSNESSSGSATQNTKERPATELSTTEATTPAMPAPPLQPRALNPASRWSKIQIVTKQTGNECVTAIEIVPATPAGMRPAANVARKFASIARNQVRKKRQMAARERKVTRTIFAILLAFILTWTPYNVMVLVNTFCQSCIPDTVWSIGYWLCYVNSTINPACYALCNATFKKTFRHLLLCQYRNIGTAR
measurement-protocol: Binding affinity to human cloned muscarinic receptor M4 expressed in CHO cells
Type: cell-based
Documented Ki across a set of compounds

smiles-entry: C[N+](C)(C)C[C@@H]1CS[C@@](c2ccccc2)(C2CCCCC2)O1
Ki: 6.17 nM (antagonist)
//
smiles-entry: C[N+]1(C)CCC[C@@H]1[C@@H]1CS[C@](c2ccccc2)(C2CCCCC2)O1
Ki: 1.82 nM (antagonist)
//
smiles-entry: CN1CCC[C@@H]1[C@@H]1CS[C@@](c2ccccc2)(C2CCCCC2)O1
Ki: 1.26 nM (antagonist)
//
smiles-entry: C[N+]1(C)CCC[C@@H]1[C@@H]1CSC(c2ccccc2)(c2ccccc2)O1
Ki: 3.47 nM (antagonist)
//
smiles-entry: C[N+]1(C)CCC[C@@H]1[C@@H]1CS[C@@](c2ccccc2)(C2CCCCC2)O1
Ki: 0.708 nM (antagonist)
//
smiles-entry: CN1CCC[C@H]1[C@H]1CS[C@](c2ccccc2)(C2CCCCC2)O1
Ki: 1.2 nM (antagonist)
//
smiles-entry: CN1CCC[C@@H]1[C@@H]1CSC(c2ccccc2)(c2ccccc2)O1
Ki: 2 nM (antagonist)
//
smiles-entry: CN1CCC[C@H]1[C@H]1CS[C@@](c2ccccc2)(C2CCCCC2)O1
Ki: 2.34 nM (antagonist)
//
smiles-entry: CN1CCC[C@H]1[C@H]1CSC(c2ccccc2)(c2ccccc2)O1
Ki: 3.31 nM (antagonist)
//
smiles-entry: C[N+]1(C)CCC[C@H]1[C@H]1CSC(c2ccccc2)(c2ccccc2)O1
Ki: 0.468 nM (antagonist)
//
smiles-entry: C[N+]1(C)CCC[C@H]1[C@H]1CS[C@](c2ccccc2)(C2CCCCC2)O1
Ki: 0.871 nM (antagonist)
//
smiles-entry: C[N+]1(C)CCC[C@H]1[C@H]1CS[C@@](c2ccccc2)(C2CCCCC2)O1
Ki: 0.871 nM (antagonist)
//
smiles-entry: CN1CCC[C@@H]1[C@@H]1CS[C@](c2ccccc2)(C2CCCCC2)O1
Ki: 1 nM (antagonist)
